// reported Duration per item
- Tested on: Male SHR, systolic blood pressure
- Test Description: Systolic blood pressure by tail cuff method, oral administration (3 mg/kg), Table 4
- Type: in vivo, rat
- Test Context: conscious SHR, '24<' means greater than 24

- Compound: "CCOC(=O)C1=C(C)NC(C)=C(C(=O)OCC=Cc2ccccc2)C1c1cccc([N+](=O)[O-])c1 (stereo not shown) [Example 15]"
  Duration: "7 to 24 h"
- Compound: "COC(=O)C1=C(C)NC(C)=C(C(=O)OCCC=Cc2ccc3ccccc3c2)C1c1cccc([N+](=O)[O-])c1 (stereo not shown) [Example 12]"
  Duration: "> 24 h"
- Compound: "COC(=O)C1=C(C)NC(C)=C(C(=O)OCC=CC=Cc2ccccc2)C1c1cccc([N+](=O)[O-])c1 (stereo not shown) [Example 16]"
  Duration: "> 24 h"
- Compound: "COC(=O)C1=C(C)NC(C)=C(C(=O)OCCN(C)Cc2ccccc2)C1c1cccc([N+](=O)[O-])c1.Cl (stereo not shown) [B, reference compound]"
  Duration: "< 3 h"

Provenance of the data: patent US4672068A
